assayOverview: A549 cytotoxicity analysis (CellTiter-Glo)
Type: cell-based
condition: human; A549 cells, 48 hours; Table 1
Assign CC50 at 48 h to each entry below.

Any idea what CC50 at 48 h was measured for CCCCCCCCCCCCCCCCCCOC[C@H](COP(=O)(O)OC[C@H]1O[C@@](C#N)(c2ccc3c(N)ncnn23)[C@H](O)[C@@H]1O)OCc1cc(F)cc(F)c1 ?
13 µM

Then CCCCCCCCCCCCCCCCCCOC[C@H](COP(=O)(O)OC[C@H]1O[C@@](C#N)(c2ccc3c(N)ncnn23)[C@H](O)[C@@H]1O)OCc1ccccc1 ?
20 µM

Then CCCCCCCCCCCCCCCCOC[C@H](COP(=O)(O)OC[C@H]1O[C@@](C#N)(c2ccc3c(N)ncnn23)[C@H](O)[C@@H]1O)OCc1ccccc1 ?
19 µM

Then CCCCCCCCCCCCCCCCCCCCOC[C@H](COP(=O)(O)OC[C@H]1O[C@@](C#N)(c2ccc3c(N)ncnn23)[C@H](O)[C@@H]1O)OCc1ccccc1 ?
23 µM

Then CCCCCCCCCCCCCCCCCCCOC[C@H](COP(=O)(O)OC[C@H]1O[C@@](C#N)(c2ccc3c(N)ncnn23)[C@H](O)[C@@H]1O)OCc1ccccc1 ?
> 50 µM

Then CCCCCCCCCCCCCCCCCCOC[C@@H](COP(=O)(O)OC[C@H]1O[C@@](C#N)(c2ccc3c(N)ncnn23)[C@H](O)[C@@H]1O)OCc1ccccc1 ?
> 50 µM

====

Assign CC50 to each entry below.
assayOverview: MT4 cytotoxicity (CC50)
condition: human, MT4 cells, MT4 CC50, Table 4
Your answer is read as nM, so omit the unit and give the number.

Any idea what CC50 was measured for CCCCCCCCCCCCCCOCCCCOP(=O)(O)OC[C@H]1O[C@@](C#N)(c2ccc3c(N)ncnn23)[C@H](O)[C@@H]1O ?
12100

Then CCCCCCCCCCCCCCCCCCOC[C@H](COP(=O)(O)OC[C@H]1O[C@@](C#N)(c2ccc3c(N)ncnn23)[C@H](O)[C@@H]1O)Oc1ccccc1C#N ?
1200

Then CCCCCCCCCCCCCCCCOC[C@H](COP(=O)(O)OC[C@H]1O[C@@](C#N)(c2ccc3c(N)ncnn23)[C@H](O)[C@@H]1O)OCc1cc(F)cc(C#N)c1 ?
404

Then CCCCCCCC/C=C\CCCCCCCCOC[C@H](COP(=O)(O)OC[C@H]1O[C@@](C#N)(c2ccc3c(N)ncnn23)[C@H](O)[C@@H]1O)OCc1ccc(C#N)cc1F ?
2430

Then CCCCCCCC/C=C\CCCCCCCCOC[C@H](COP(=O)(O)OC[C@H]1O[C@@](C#N)(c2ccc3c(N)ncnn23)[C@H](O)[C@@H]1O)OCc1ccccc1 ?
3560

Then CCCCCCCCCCCCCCCCCCOC[C@H](COP(=O)(O)OC[C@H]1O[C@@](C#N)(c2ccc3c(N)ncnn23)[C@H](O)[C@@H]1O)Oc1ccc(C#N)nn1 ?
344

====

assayOverview: MT4 cytotoxicity (CC50)
condition: human, MT4 cells, MT4 CC50, Table 4
Label key: T means CC50 under 300 nM; F means CC50 of 300 nM or more.

Bench note: check whether CCCCCCCCCCCCCCCCCCOC[C@H](COP(=O)(O)OC[C@H]1O[C@@](C#N)(c2ccc3c(N)ncnn23)[C@H](O)[C@@H]1O)OCc1cncc(C#N)c1 [Example 75] shows CC50 below 300 nM
T

Then CCCCCCCCCCCCCCCCCCOC[C@@H](CCc1cc(F)cc(C#N)c1)COP(=O)(O)OC[C@H]1O[C@@](C#N)(c2ccc3c(N)ncnn23)[C@H](O)[C@@H]1O [Example 86] ?
F

Then CCCCCCCCCCCCCCCCOC[C@H](COP(=O)(O)OC[C@H]1O[C@@](C#N)(c2ccc3c(N)ncnn23)[C@H](O)[C@@H]1O)OCc1ccc(C#N)c(F)c1 [Example 113] ?
F

Then CCCCCCCCCCCCCCCCCCOC[C@H](COP(=O)(O)OC[C@H]1O[C@@](C#N)(c2ccc3c(N)ncnn23)[C@H](O)[C@@H]1O)Oc1cnc(C#N)nc1 [Example 82] ?
F

Then CCCCCCCCCCCCCCCCCCOC[C@H](COP(=O)(O)OC[C@H]1O[C@@](C#N)(c2ccc3c(N)ncnn23)[C@H](O)[C@@H]1O)OCc1cnc(C(F)(F)F)nc1 [Example 122] ?
F
